assay: Cell toxicity, MTT-based EZ4U assay, HEK-293; parameters: species or system human; conditions: human, HEK-293 cells (embryonic kidney); HEK, 300 µmol/L, 72 h
readoutName: viability at 72 h, 300 µmol/L (%)
Field format: number, assumed %, no unit text.

Query string: Which value of viability at 72 h, 300 µmol/L has been reported for "O=C(/N=C(/NCc1ccc(Cl)cc1Cl)Nc1ccc(Br)cc1)c1ccccc1" in the records?
Result string: 118

Query string: Also "O=C(/N=C(/NCc1ccccc1)Nc1ccc([N+](=O)[O-])cc1)c1ccccc1" , if possible.
Result string: 117

Query string: How about "O=C(/N=C(/NCc1ccccc1)Nc1ccc(Br)cc1)c1ccccc1" ?
Result string: 123

* * *

Measured viability at 72 h, 2.34 µmol/L, listed per entry for reference.
experiment: Cell toxicity, MTT-based EZ4U assay, CaCo-2; details: human, CaCo-2 cells (colon carcinoma), CACO2, 2.34 µmol/L
All answers are understood in %, so give the number only.

{"columns": ["compound", "viability at 72 h, 2.34 µmol/L (%)"],
 "data": [
  ["O=C(/N=C(/NCc1ccccc1)Nc1ccc([N+](=O)[O-])cc1)c1ccccc1 [LQOF-G1]", 106],
  ["O=C(/N=C(/NCc1ccccc1)Nc1ccc(Br)cc1)c1ccccc1 [LQOF-G2]", 106]
]}

// next item, viability at 72 h, 2.34 µmol/L requested
Query string: Dear colleague, I am looking for the recorded viability at 72 h, 2.34 µmol/L of the following compound: O=C(/N=C(/NCc1ccc(Cl)cc1Cl)Nc1ccc(Br)cc1)c1ccccc1 [LQOF-G32]
Result string: 138

* * *

Assay: Cell toxicity, MTT-based EZ4U assay, HEK-293
Design: species or system human
Conditions: human, HEK-293 cells (embryonic kidney); HEK, 600 µmol/L, 72 h
Procedure: […] To assess cell viability after 72 h of exposure to the compounds, we employed a 3-(4,5-dimethylthiazol-2-yl)-2,5-diphenyltetrazolium bromide (MTT)-based vitality assay kit (EZ4U, Biomedica, Vienna, Austria). […] Subsequently, we measured the absorbance using a microplate reader at 450 nm, with 620 nm as a reference to reduce unspecific background values. […]
Listed here are compounds together with their documented viability at 72 h, 600 µmol/L.
Just the number please, in %, no unit attached.

Example cases with answers are listed next.
{"columns": ["smilesRepr", "viability at 72 h, 600 µmol/L [%]"],
 "data": [
  ["O=C(/N=C(/NCc1ccccc1)Nc1ccc(Br)cc1)c1ccccc1", 133],
  ["O=C(/N=C(/NCc1ccc(Cl)cc1Cl)Nc1ccc(Br)cc1)c1ccccc1", 185]
]}

Let's switch to this compound now.
Query string: What does the record list as viability at 72 h, 600 µmol/L for "O=C(/N=C(/NCc1ccccc1)Nc1ccc([N+](=O)[O-])cc1)c1ccccc1" ?
Result string: 115

* * *

tested on: L. (V.) braziliensis intramacrophage amastigotes; assay: Treatment of RAW 264.7 macrophages infected with L. (V.) braziliensis (intramacrophage amastigotes); assay type: cell-based, Leishmania (Viannia) braziliensis; settings: Leishmania braziliensis, RAW264.7, 72 h, RAW 264.7 infected with L. (V.) braziliensis, 72 h of treatment
List of pEC50 values.
Interpret pEC50 as the negative base-10 log of the concentration measured in mol/L.

{"columns": ["compound", "pEC50"],
 "data": [
  ["C[C@@H]1[C@H](O)[C@@H](C)/C=C/C=C/C=C/C=C/C=C/C=C/C=C/[C@H](O[C@@H]2O[C@H](C)[C@@H](O)[C@H](N)[C@@H]2O)C[C@@H]2O[C@](O)(C[C@@H](O)C[C@@H](O)[C@H](O)CC[C@@H](O)C[C@@H](O)CC(=O)O[C@H]1C)C[C@H](O)[C@H]2C(=O)O [Amphotericin B, reference compound]", 6.46],
  ["CC(C)(C)c1ccc(N/C(=N\\C(=O)c2ccccc2)NCc2ccccc2)cc1", 5.41],
  ["O=C(/N=C(/NCc1ccccc1)Nc1ccc([N+](=O)[O-])cc1)c1ccccc1", 5.44]
]}

Query string: May I ask what pEC50 has been recorded for "O=C(/N=C(/NCc1ccccc1)Nc1ccc(I)cc1)c1ccccc1" ?
Result string: 5.08

Query string: "O=C(/N=C(/NCc1ccccc1)Nc1ccc(Br)cc1)c1ccccc1" , same question.
Result string: 5.38

* * *

experiment: Cell toxicity, MTT-based EZ4U assay, CaCo-2; details: human, CaCo-2 cells (colon carcinoma), CACO2, 4.6875 µmol/L
readoutName: viability at 72 h, 4.6875 µmol/L
Remember to follow the number with its unit.

Examples from the recorded data:
{"columns": ["smilesRepr", "viability at 72 h, 4.6875 µmol/L"],
 "data": [
  ["O=C(/N=C(/NCc1ccc(Cl)cc1Cl)Nc1ccc(Br)cc1)c1ccccc1", "123%"],
  ["O=C(/N=C(/NCc1ccccc1)Nc1ccc([N+](=O)[O-])cc1)c1ccccc1", "109%"]
]}

// moving on: another record for viability at 72 h, 4.6875 µmol/L
Query string: What does the record list as viability at 72 h, 4.6875 µmol/L for "O=C(/N=C(/NCc1ccccc1)Nc1ccc(Br)cc1)c1ccccc1" ?
Result string: 109%

* * *

# maps each entry to its viability at 72 h, 18.75 µmol/L
assay: Cell toxicity, MTT-based EZ4U assay, HEK-293; parameters: species or system human; settings: human, HEK-293 cells (embryonic kidney); HEK, 18.75 µmol/L, 72 h
Return type: number; implicit unit %.

{"columns": ["compound", "readoutName", "measuredResult"],
 "data": [
  ["O=C(/N=C(/NCc1ccccc1)Nc1ccc(Br)cc1)c1ccccc1 [LQOF-G2]", "viability at 72 h, 18.75 µmol/L", 108],
  ["O=C(/N=C(/NCc1ccc(Cl)cc1Cl)Nc1ccc(Br)cc1)c1ccccc1 [LQOF-G32]", "viability at 72 h, 18.75 µmol/L", 94]
]}

# ---- query compound ----
Query string: Need viability at 72 h, 18.75 µmol/L, item O=C(/N=C(/NCc1ccccc1)Nc1ccc([N+](=O)[O-])cc1)c1ccccc1 [LQOF-G1]
Result string: 125

* * *

assay: Cell toxicity, MTT-based EZ4U assay, CaCo-2; settings: human, CaCo-2 cells (colon carcinoma), CACO2, 75 µmol/L
Reported viability at 72 h, 75 µmol/L values follow for various compounds
State the answer as a number, implicitly in %.

Completed entries (count: 2):
{"columns": ["compound", "viability at 72 h, 75 µmol/L, %"],
 "data": [
  ["O=C(/N=C(/NCc1ccc(Cl)cc1Cl)Nc1ccc(Br)cc1)c1ccccc1 [LQOF-G32]", 53],
  ["O=C(/N=C(/NCc1ccccc1)Nc1ccc([N+](=O)[O-])cc1)c1ccccc1 [LQOF-G1]", 99]
]}

Query string: Need viability at 72 h, 75 µmol/L, item O=C(/N=C(/NCc1ccccc1)Nc1ccc(Br)cc1)c1ccccc1 [LQOF-G2]
Result string: 99

* * *

assay: Cell toxicity, MTT-based EZ4U assay, HEK-293; design: species or system human; conditions: human, HEK-293 cells (embryonic kidney); HEK, 9.375 µmol/L, 72 h
readoutName: viability at 72 h, 9.375 µmol/L (%)
Respond numerically; units are % and should not be typed.

These recorded examples may help you get a feel for the data.
{"columns": ["molecule", "readingUnit", "viability at 72 h, 9.375 µmol/L"],
 "data": [
  ["O=C(/N=C(/NCc1ccc(Cl)cc1Cl)Nc1ccc(Br)cc1)c1ccccc1 [LQOF-G32]", "%", 89],
  ["O=C(/N=C(/NCc1ccccc1)Nc1ccc([N+](=O)[O-])cc1)c1ccccc1 [LQOF-G1]", "%", 125]
]}

Query string: Requested read-out: viability at 72 h, 9.375 µmol/L. Entry: O=C(/N=C(/NCc1ccccc1)Nc1ccc(Br)cc1)c1ccccc1 [LQOF-G2]
Result string: 103

* * *

Recorded viability at 72 h, 300 µmol/L values for a group of compounds are listed next.
assay: Cell toxicity, MTT-based EZ4U assay, CaCo-2; details: human, CaCo-2 cells (colon carcinoma), CACO2, 300 µmol/L
Respond with the bare value in %.

Known results for compounds:
{"columns": ["smilesRepr", "viability at 72 h, 300 µmol/L, %"],
 "data": [
  ["O=C(/N=C(/NCc1ccccc1)Nc1ccc(Br)cc1)c1ccccc1", 103],
  ["O=C(/N=C(/NCc1ccc(Cl)cc1Cl)Nc1ccc(Br)cc1)c1ccccc1", 45]
]}

# context switch: different compound, same viability at 72 h, 300 µmol/L
Query string: Suppose we examine the compound "O=C(/N=C(/NCc1ccccc1)Nc1ccc([N+](=O)[O-])cc1)c1ccccc1" ; what viability at 72 h, 300 µmol/L value has been reported?
Result string: 103

* * *

test: Cell toxicity, MTT-based EZ4U assay, A549; design: species or system human; conditions: human, A549 cells (alveolar basal epithelial adenocarcinoma); A549, 18.75 µmol/L, 72 h
readoutName: viability at 72 h, 18.75 µmol/L (%)
Record the value in %, omitting the unit from your answer.

Recorded viability at 72 h, 18.75 µmol/L, per entry:
{"columns": ["compound", "readoutName", "measuredResult"],
 "data": [
  ["O=C(/N=C(/NCc1ccccc1)Nc1ccc([N+](=O)[O-])cc1)c1ccccc1 [LQOF-G1]", "viability at 72 h, 18.75 µmol/L", 103],
  ["O=C(/N=C(/NCc1ccc(Cl)cc1Cl)Nc1ccc(Br)cc1)c1ccccc1 [LQOF-G32]", "viability at 72 h, 18.75 µmol/L", 121]
]}

Now, please, on to the next compound.
Query string: Quick check: viability at 72 h, 18.75 µmol/L of O=C(/N=C(/NCc1ccccc1)Nc1ccc(Br)cc1)c1ccccc1 [LQOF-G2] ?
Result string: 89
